System: PC-3 prostate
EXPERIMENT_NOTES: NCI-60 one-dose screen, 48 h (100 = growth as untreated, 0 = no growth, -100 = all killed)
EXPERIMENTAL_CONDITIONS: 10 µM
The panel holds about 83,000 compounds, 20% with a hit somewhere; the sample as a whole holds those more often.
Recorded growth by entry
Numbers only; they are read as %.

Cc1cc(O)c(C(C)C)cc1Cl | 101
Nc1nc(=S)c2ncn(C3OC(CO)C(O)C3O)c2[nH]1 (stereo not given) | 33.4
CCN1/C(=C/C=C/C=C/c2sc3ccccc3[n+]2CC)Sc2ccccc21 | 7.09
OCC(O)C(O)C(O)C(/C=N/Nc1ccccc1)=N/Nc1ccccc1 (stereo not given) | 72.6
CCC(C)(C)c1cc(O)c(C(C)(C)CC)cc1O | 32.3

// returns reported growth for input CCCCCC(C)c1ccc(O)c(C)c1 (stereo not given) 103

// returns reported growth for input CC(=O)Nc1cc(C)ccc1C 106

// returns reported growth for input O=C1NC(=O)c2cc([N+](=O)[O-])ccc21 101

// returns reported growth for input OC(CN1CCCC2CCCCC21)c1cc2ccccc2c2ccccc12 (stereo not given) 38.5

// returns reported growth for input COc1cccc2c1C(=O)c1c(O)c3c(c(O)c1C2=O)C[C@@](O)(C(=O)CO)C[C@@H]3OC1CC(N)C(O)C(C)O1 (stereo not given in full) 1.27

// returns reported growth for input COc1cccc2c1C(=O)c1c(O)c3c(c(O)c1C2=O)C[C@@](O)(C(C)=O)C[C@@H]3OC1CC(N)C(O)C(C)O1 (stereo not given in full) -25.8

// returns reported growth for input CCO/C=C1\SC(=S)N(c2cccc(O)c2)C1=O 98

// returns reported growth for input CCCCCCCCCCCCCCCCCCOCC(COP(=O)([O-])OCC[N+](C)(C)C)OC (stereo not given) 29.5

// returns reported growth for input O=C(/C=C/c1ccccn1)c1ccccc1 69.3

// returns reported growth for input CC[N+](CC)=c1ccc2nc3c(cc(N)c4ccccc43)oc-2c1 -48.8

// returns reported growth for input O=c1ccn(C2CC(O)C(COC(c3ccccc3)(c3ccccc3)c3ccccc3)O2)c(=O)[nH]1 (stereo not given) 59.5

// returns reported growth for input COc1c(O)cc2oc3cc(O)c(CC=C(C)C)c(O)c3c(=O)c2c1CC=C(C)C 41.1

// returns reported growth for input O=C(/C=C/c1cccnc1)c1ccccc1 88.1

// returns reported growth for input COc1ccc(CC(=O)c2ccc(O)cc2O)cc1 109

// returns reported growth for input O=C1C=CC(=CC=C2C=CN(CCCCCCCCCCCO)C=C2)C=C1 17.5

// returns reported growth for input Clc1cc(Cl)c(Cl)nn1 80.9

// returns reported growth for input O=C1C=C(O)c2ccccc2C1=O.[Ag] 78.7

// returns reported growth for input COC1OCC(O)C(O)C1O (stereo not given) 92.4

// returns reported growth for input NC(=O)SCC(=O)NNc1ccccc1 85.7

// returns reported growth for input CS(=O)(=O)OC1CC(n2ccc(=O)[nH]c2=O)OC1COC(c1ccccc1)(c1ccccc1)c1ccccc1 (stereo not given) 91.3

###

Tested on: NCI-H226 lung
EXPERIMENT_NOTES: NCI-60 one-dose screen, 48 h (100 = growth as untreated, 0 = no growth, -100 = all killed)
EXPERIMENTAL_CONDITIONS: 10 µM
This is part of a sample that, as a whole, favours compounds with a hit. Of some 83,000 tested, about 20% had one in any assay.
Recorded growth by entry
Numbers only; they are read as %.

Field: example entries. Status: answers known.
CS(=O)(=O)OC1CC(n2ccc(=O)[nH]c2=O)OC1COC(c1ccccc1)(c1ccccc1)c1ccccc1 (stereo not given) | 104
Clc1cc(Cl)c(Cl)nn1 | 99.8
COc1c(O)cc2oc3cc(O)c(CC=C(C)C)c(O)c3c(=O)c2c1CC=C(C)C | 72.9
Oc1ccc(N=Nc2ccccn2)c(O)c1 | 21.1
CC(=O)Nc1cc(C)ccc1C | 98.7
COc1cccc2c1C(=O)c1c(O)c3c(c(O)c1C2=O)C[C@@](O)(C(C)=O)C[C@@H]3OC1CC(N)C(O)C(C)O1 (stereo not given in full) | -6.94

Tell me reported growth for CCCCCCCCCCCC[N+](C)(C)Cc1ccccc1 , tested with NCI-H226 lung. 55

Tell me reported growth for CSC1SCC2C(=O)N(C)C(C(C)C)C(=O)OCC(NC(=O)c3cnc4ccccc4n3)C(=O)NC(C)C(=O)N(C)C1C(=O)N(C)C(C(C)C)C(=O)OCC(NC(=O)c1cnc3ccccc3n1)C(=O)NC(C)C(=O)N2C (stereo not given) , tested with NCI-H226 lung. -5.57

Tell me reported growth for CCCCCC(C)c1ccc(O)c(C)c1 (stereo not given) , tested with NCI-H226 lung. 96
